Biological target: SLC25A1 (Homo sapiens, UniProt P53007)
Sequence (P53007 14-311): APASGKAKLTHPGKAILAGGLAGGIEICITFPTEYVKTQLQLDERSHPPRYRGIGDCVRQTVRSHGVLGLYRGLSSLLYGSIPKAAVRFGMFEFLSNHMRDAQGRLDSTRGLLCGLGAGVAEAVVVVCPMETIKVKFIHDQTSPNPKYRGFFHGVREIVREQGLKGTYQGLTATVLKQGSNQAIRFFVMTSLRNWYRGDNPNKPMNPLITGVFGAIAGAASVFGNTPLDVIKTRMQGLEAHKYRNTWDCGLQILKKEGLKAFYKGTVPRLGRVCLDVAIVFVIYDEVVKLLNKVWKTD
Experiment: Surface plasmon resonance (SPR) binding to recombinant purified SLC25A1
Details: steady state, 1:1 binding model; human protein
Measured quantity: pKd
Kindly note that pKd refers to -log10 of the concentration in mol/L and answer with the value alone.

INSERT INTO assay_data (test_smiles, reported_result) VALUES
  ('O=C(O)c1ccc(Cl)c(S(=O)(=O)Nc2cccc([N+](=O)[O-])c2)c1', 4.20);

We next turn to a different molecule, shown below.
q: Which pKd value is on record for O=C(O)c1ccccc1NS(=O)(=O)c1ccc(Cl)c([N+](=O)[O-])c1 ?
a: 5.28
